Source of measurements: patent US20260284069A1

Each entry below lists one item and its recorded EC50 value.
- Tested on: NCIH-460 cells
- Protocol description: Cellular viability assay (NCIH-460, PARG-inhibition sensitive cell line)
- Format: cell-based
- Applied conditions: Homo sapiens, NCI-H460, 96 h, 96 hours incubation, Cell Titer-Glo, read-out: EC50 determined in NCIH-460 cells, cellular viability assay
Where a name gives a salt, the structure may show the parent alone.
Quick reminder: number only, in nM, skip the unit.

{"columns": ["Compound", "Reported endpoint", "Unit abbrev", "Quantitative readout"],
 "data": [
  ["CC1(NS(=O)(=O)c2cc(C3=CCNCC3(F)F)c3c(Cl)nc(-c4nnc(C(F)F)s4)n3c2)CC1", "EC50", "nM", 199],
  ["CN=S1(=O)CCN(c2cc(S(=O)(=O)NC3(C)CC3)cn3c(-c4nnc(C(F)F)s4)ncc23)CC1C (stereo not shown)", "EC50", "nM", 111],
  ["C[C@H]1CN(c2cc(S(=O)(=O)NC3(C)CC3)cn3c(-c4nnc(C(F)F)s4)nc(F)c23)C[C@H](C)N1", "EC50", "nM", 35]
]}

Q: Could you please provide reported EC50 for CC1CN(c2cc(S(=O)(=O)NC3(C)CC3)cn3c(-c4nnc(C(F)F)s4)ncc23)CC2(CC2)N1 (stereo not shown) [Example 10, formate] ? Thanks!
A: 418
